Target: α4β1 integrin (Homo sapiens (Human), UniProt P05556+P13612)
Sequence (P13612 34-1032): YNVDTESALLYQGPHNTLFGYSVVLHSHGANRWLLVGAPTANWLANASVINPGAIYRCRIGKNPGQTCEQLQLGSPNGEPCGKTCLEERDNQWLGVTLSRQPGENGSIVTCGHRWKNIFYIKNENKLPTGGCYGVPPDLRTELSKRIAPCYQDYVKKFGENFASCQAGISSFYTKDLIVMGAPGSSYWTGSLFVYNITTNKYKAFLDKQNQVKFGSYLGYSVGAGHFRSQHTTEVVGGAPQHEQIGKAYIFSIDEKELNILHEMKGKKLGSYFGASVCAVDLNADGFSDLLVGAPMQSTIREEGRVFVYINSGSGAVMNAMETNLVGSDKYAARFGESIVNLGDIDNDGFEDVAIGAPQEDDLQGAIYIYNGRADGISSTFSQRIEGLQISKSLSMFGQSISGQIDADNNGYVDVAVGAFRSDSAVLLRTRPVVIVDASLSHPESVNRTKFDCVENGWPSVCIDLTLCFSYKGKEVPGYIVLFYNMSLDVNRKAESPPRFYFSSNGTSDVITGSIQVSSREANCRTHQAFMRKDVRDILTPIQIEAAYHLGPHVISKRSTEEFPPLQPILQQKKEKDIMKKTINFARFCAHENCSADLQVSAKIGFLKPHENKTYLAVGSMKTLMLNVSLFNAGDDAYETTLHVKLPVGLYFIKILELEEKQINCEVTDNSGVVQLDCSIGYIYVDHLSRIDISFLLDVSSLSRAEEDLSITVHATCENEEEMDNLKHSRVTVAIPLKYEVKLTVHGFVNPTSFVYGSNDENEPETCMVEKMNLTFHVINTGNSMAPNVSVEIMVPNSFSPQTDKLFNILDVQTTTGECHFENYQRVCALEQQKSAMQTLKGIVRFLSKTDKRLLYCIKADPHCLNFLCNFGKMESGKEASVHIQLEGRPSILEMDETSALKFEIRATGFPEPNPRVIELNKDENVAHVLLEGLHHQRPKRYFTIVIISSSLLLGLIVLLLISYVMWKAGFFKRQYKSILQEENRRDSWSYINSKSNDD
Sequence (P05556 21-798): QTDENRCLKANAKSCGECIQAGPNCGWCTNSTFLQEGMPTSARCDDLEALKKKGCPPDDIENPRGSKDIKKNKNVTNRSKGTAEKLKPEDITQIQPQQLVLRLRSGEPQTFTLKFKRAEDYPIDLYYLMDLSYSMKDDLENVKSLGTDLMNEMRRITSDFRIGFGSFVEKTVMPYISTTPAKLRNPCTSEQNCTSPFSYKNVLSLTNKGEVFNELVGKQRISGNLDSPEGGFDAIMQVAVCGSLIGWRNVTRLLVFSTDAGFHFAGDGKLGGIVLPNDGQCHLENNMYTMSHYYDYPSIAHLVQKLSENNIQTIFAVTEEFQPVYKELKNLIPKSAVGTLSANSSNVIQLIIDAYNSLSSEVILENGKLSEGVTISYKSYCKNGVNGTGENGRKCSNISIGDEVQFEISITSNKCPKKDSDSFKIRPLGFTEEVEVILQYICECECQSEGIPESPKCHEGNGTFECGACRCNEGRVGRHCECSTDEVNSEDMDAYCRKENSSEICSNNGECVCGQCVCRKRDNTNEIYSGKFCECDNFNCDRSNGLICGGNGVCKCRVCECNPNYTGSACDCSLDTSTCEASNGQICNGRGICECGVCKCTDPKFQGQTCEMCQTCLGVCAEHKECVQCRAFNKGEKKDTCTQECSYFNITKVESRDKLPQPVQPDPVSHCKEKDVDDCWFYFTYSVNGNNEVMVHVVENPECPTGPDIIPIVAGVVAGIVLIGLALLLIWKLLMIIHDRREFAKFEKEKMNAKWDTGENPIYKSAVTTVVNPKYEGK
Test: Integrin Adhesion Assay: Protocol 5 (VCAM-coated plate, RPMI-8866 cells with stable LOF mutation of the ITGB7 gene)
Assay type: cell-based
Conditions: Protocol 5; RPMI-8866 cells with LOF mutation of ITGB7, VCAM; read-out: Mean IC50 α4β1 KO
metric: IC50

Solved entries (count: 2):
CC[C@@H]1CCCN1Cc1cnc(-c2cccc3c(C[C@H](NC(=O)C4(C(F)(F)F)CCN(CC(F)(F)F)CC4)C(=O)O)cccc23)c2ccccc12: > 1 µM
COc1cccc(CCN2CCC(F)(F)CC2)c1-c1cccc2c(C[C@H](NC(=O)C3(C(F)(F)F)CCN(CC(F)(F)F)CC3)C(=O)O)cccc12: > 1 µM

The record that follows has no IC50 shown yet.
Tell me the measured IC50 of O=C(O)[C@H](Cc1cccc2c(-c3ncc(CN4CCCC4)c4ccccc34)cccc12)NC(=O)C1(C(F)(F)F)CCN(CC(F)F)CC1 , please.
0.1 to 1 µM

* * *

# IC50 per entry
Molecular target: α4β7 integrin (Homo sapiens (Human), UniProt P13612+P26010)
Sequence (P26010 20-798, one chain of several): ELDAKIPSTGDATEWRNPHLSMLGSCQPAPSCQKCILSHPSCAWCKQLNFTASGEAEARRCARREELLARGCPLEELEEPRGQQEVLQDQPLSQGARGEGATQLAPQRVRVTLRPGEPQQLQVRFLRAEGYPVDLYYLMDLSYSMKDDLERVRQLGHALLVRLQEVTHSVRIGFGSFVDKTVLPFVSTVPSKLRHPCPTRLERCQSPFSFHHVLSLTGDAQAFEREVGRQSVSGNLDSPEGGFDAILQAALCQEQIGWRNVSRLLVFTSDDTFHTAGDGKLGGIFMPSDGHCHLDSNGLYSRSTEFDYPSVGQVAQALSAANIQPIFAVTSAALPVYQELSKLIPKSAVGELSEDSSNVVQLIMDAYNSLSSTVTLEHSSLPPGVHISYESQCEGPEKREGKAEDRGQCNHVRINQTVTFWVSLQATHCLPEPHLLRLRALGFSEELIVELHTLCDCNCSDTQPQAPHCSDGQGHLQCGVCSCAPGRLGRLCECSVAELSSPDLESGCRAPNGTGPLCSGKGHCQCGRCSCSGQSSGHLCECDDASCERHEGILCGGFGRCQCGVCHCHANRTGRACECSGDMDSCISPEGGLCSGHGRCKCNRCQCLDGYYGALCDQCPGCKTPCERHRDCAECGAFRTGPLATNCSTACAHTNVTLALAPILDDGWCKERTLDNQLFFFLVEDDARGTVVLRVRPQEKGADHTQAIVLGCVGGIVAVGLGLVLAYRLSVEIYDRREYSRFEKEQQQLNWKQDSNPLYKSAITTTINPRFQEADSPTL
Test: Integrin Adhesion Assay: Protocol 4 (MAdCAM-coated plate, RPMI-8866 cells with stable LOF mutation of the ITGB1 gene)
Assay type: cell-based
Conditions: RPMI-8866 cells with stable LOF mutation of the ITGB1 gene; read-out: Mean IC50 α4β7 KO^a

Would you please look over these solved cases?
COc1ccc(CN2CCC(F)CC2)c(C(F)(F)F)c1-c1cccc2c(C[C@H](NC(=O)c3c(C)cccc3F)C(=O)O)cccc12 [Compound 574]: 0.01 to 0.1 µM
COc1cccc(F)c1C(=O)N[C@@H](Cc1cccc2c(-c3c(OC)ccc(CN4CCCCC4)c3OC)cccc12)C(=O)O [Compound 647]: < 0.01 µM
COc1ccc(CN(C)C)c(OC)c1-c1cccc2c(C[C@H](NC(=O)c3c(C)cc(NCC(F)(F)F)cc3F)C(=O)O)cccc12 [Compound 607]: < 0.01 µM
COc1ccc(CN2CCC(F)(F)CC2)c(OC)c1-c1cccc2c(C[C@H](NC(=O)c3c(F)cncc3Cl)C(=O)O)cccc12 [Compound 614]: 0.01 to 0.1 µM
O=C(O)[C@H](Cc1cccc2c(-c3nccc4ccc(CCCN5CCCCC5)cc34)cccc12)NC(=O)C1(C(F)(F)F)CCN([C@H]2COCC2(F)F)CC1 [Compound 482]: < 0.01 µM

Record request: IC50 value, item COc1ccc(CN2CCC(c3ccccc3)CC2)c(OC)c1-c1cccc2c(C[C@H](NC(=O)c3c(C)cccc3F)C(=O)O)cccc12 [Compound 570]
< 0.01 µM

Also CC1CC(C)(C(=O)N[C@@H](Cc2cccc3c(-c4c(C(F)(F)F)c5ccccc5n(C)c4=O)cccc23)C(=O)O)CCN1CC(F)(F)F (stereo partly drawn) [Compound 528] ?
> 1 µM

Cool, now Cn1c(=O)c(-c2cccc3c(C[C@H](NC(=O)C4(C(F)(F)F)CCNCC4)C(=O)O)cccc23)c(C(F)(F)F)c2ccccc21 [Compound 492]
0.01 to 0.1 µM

Another compound: Cn1c(=O)c(-c2cccc3c(C[C@H](NC(=O)c4c(F)ccc(-c5ccncc5)c4F)C(=O)O)cccc23)c(C(F)(F)F)c2ccccc21 [Compound 311]
0.1 to 1 µM

Now try COc1ccc(CN2CCC(F)(F)CC2)c(OC)c1-c1cccc2c(C[C@H](NC(=O)C3(C(F)(F)F)CCN([C@@H]4COC[C@@H]4F)CC3)C(=O)O)cccc12 [Compound 668] .
< 0.01 µM

Now consider Cn1c(=O)c(-c2cccc3c(C[C@H](NC(=O)C4(C(F)(F)F)CCN([C@H]5CCOC5)CC4)C(=O)O)cccc23)c(C(F)(F)F)c2ccccc21 [Compound 457] and answer again.
< 0.01 µM

Please do the same for COc1ccc(CN2C(C)CCCC2C)c(OC)c1-c1cccc2c(C[C@H](NC(=O)c3c(C)cccc3F)C(=O)O)cccc12 (stereo partly drawn) [Compound 632] as well.
< 0.01 µM

Same question for Cn1c(=O)c(-c2cccc3c(C[C@H](NC(=O)C4(C(F)(F)F)CCN(C5(C(F)(F)F)COC5)CC4)C(=O)O)cccc23)c(C(F)(F)F)c2ccccc21 [Compound 491] please.
0.1 to 1 µM

Same thing, different compound: O=C(O)[C@H](Cc1cccc2c(-c3nccc4c(CN5CCC(F)(F)C5)cccc34)cccc12)NC(=O)C1(C(F)(F)F)CCN(C2COC2)CC1 [Compound 595]
< 0.01 µM

* * *

Target: α4β1 integrin (Homo sapiens (Human), UniProt P05556+P13612)
Experiment: Integrin Adhesion Assay: Protocol 5 (VCAM-coated plate, RPMI-8866 cells with stable LOF mutation of the ITGB7 gene)
Format: cell-based
Conditions: RPMI-8866 cells with stable LOF mutation of the ITGB7 gene; read-out: Mean IC50 α4β1 KO^b
pIC50: −log10 of the molar value.
Overview of reported pIC50 across a group of compounds:

CN1CCN(c2cc(F)c(C(=O)N[C@@H](Cc3cccc4c(-c5c(C(F)(F)F)c6ccccc6n(C)c5=O)cccc34)C(=O)O)c(F)c2)CC1 [Compound 350]: < 6.00
O=C(O)[C@H](Cc1cccc2c(-c3nccc4ccc(CCCN5CCCCC5)cc34)cccc12)NC(=O)C1(C(F)(F)F)CCNCC1 [Compound 549]: < 6.00

// switching to the query compound
Please report the recorded pIC50 for Cn1c(C(F)(F)F)cc(C(F)(F)F)c(-c2cccc3c(C[C@H](NC(=O)C4(C(F)(F)F)CCN(C5COC5)CC4)C(=O)O)cccc23)c1=O [Compound 499] .
6.00 to 7.00

* * *

Target: α4β7 integrin (Homo sapiens (Human), UniProt P13612+P26010)
Test: Integrin Adhesion Assay: Protocol 4 (MAdCAM-coated plate, RPMI-8866 cells with stable LOF mutation of the ITGB1 gene)
Format: cell-based
Conditions: Protocol 4; RPMI-8866 cells with LOF mutation of ITGB1, MAdCAM; read-out: Mean IC50 α4β7 KO
pIC50: −log10 of the molar value.
Item-by-item account of pIC50

COc1cccc(CCN2CCC(c3ccccc3)CC2)c1-c1cccc2c(C[C@H](NC(=O)C3(C(F)(F)F)CCN(CC(F)(F)F)CC3)C(=O)O)cccc12 [Compound 973]: 7.00 to 8.00
COc1cc(CN2CCC(C(F)(F)F)CC2)cnc1-c1cccc2c(C[C@H](NC(=O)C3(C(F)(F)F)CCN(CC(F)F)CC3)C(=O)O)cccc12 [Compound 925]: > 8.00

For the compound Cn1c(=O)c(-c2cccc3c(C[C@H](NC(=O)C4(C(F)(F)F)CCN(CC(F)(F)F)CC4)C(=O)O)cccc23)c(C(F)(F)F)c2cc(CN3CCC(c4ccccc4)CC3)ccc21 [Compound 837] , what pIC50 is on record?
7.00 to 8.00

Try the compound O=C(O)[C@H](Cc1cccc2c(-c3ncc(CCN4CCC[C@@H](F)C4)c4ccccc34)cccc12)NC(=O)C1(C(F)(F)F)CCN(CC(F)(F)F)CC1 [Compound 977]
> 8.00

Same question for CN1CCC(Cc2ccc3ccnc(-c4cccc5c(C[C@H](NC(=O)C6(C(F)(F)F)CCN(CC(F)(F)F)CC6)C(=O)O)cccc45)c3c2)CC1 [Compound 990] please.
> 8.00

Record: CC(C)Oc1cc(CN2CCCCC2)cnc1-c1cccc2c(C[C@H](NC(=O)C3(C(F)(F)F)CCN(CC(F)(F)F)CC3)C(=O)O)cccc12 [Compound 894]
> 8.00

* * *

Biological target: α4β7 integrin (Homo sapiens (Human), UniProt P13612+P26010)
Test: Integrin Adhesion Assay: Protocol 1 (MAdCAM-coated plate, RPMI-8866 cells, CellTiter GLO readout)
Format: cell-based
Listing: IC50 of selected compounds

In the examples that follow, each entry is paired with its recorded IC50.
Cn1c(=O)c(-c2cccc3c(C[C@H](NC(=O)[C@]4(C)CC[C@H](N5CCC(F)(F)CC5)CC4)C(=O)O)cccc23)c(C(F)(F)F)c2ccccc21: > 1000 nM
COc1ccc(CN(C)C)c(OC)c1-c1cccc2c(C[C@H](NC(=O)c3c(C)cccc3F)C(=O)O)cccc12: < 10 nM

We next turn to a different compound, shown below.
Missing value: IC50, α4β7 integrin (Homo sapiens (Human), UniProt P13612+P26010), entry CN(C)c1ccc2c(c1)c(C(F)(F)F)c(-c1cccc3c(C[C@H](NC(=O)c4c(F)cc(N5CCOC[C@@H]5C(F)(F)F)cc4F)C(=O)O)cccc13)c(=O)n2C . Fill in?
10 to 100 nM

* * *

Biological target: α4β7 integrin (Homo sapiens (Human), UniProt P13612+P26010)
Assay: Integrin Adhesion Assay: Protocol 1 (MAdCAM-coated plate, RPMI-8866 cells, CellTiter GLO readout)
Assay type: cell-based
metric: IC50

Cn1c(=O)c(-c2cccc3c(C[C@H](NC(=O)C4(C)CCN(C5COC5)CC4)C(=O)O)cccc23)c(C(F)(F)F)c2ccccc21: 10 to 100 nM
Cn1c(=O)c(-c2cccc3c(C[C@H](NC(=O)c4c(F)cc(N5CCC(CO)C5)cc4F)C(=O)O)cccc23)c(C(F)(F)F)c2ccccc21 (stereo partly drawn): 100 to 1000 nM
O=C(N[C@@H](Cc1cccc2c(-c3cccc4ccncc34)cccc12)C(=O)O)c1c(F)cc(N2CCOC[C@@H]2C(F)(F)F)cc1CN1CCC(F)(F)CC1: 10 to 100 nM
Cn1c(=O)c(-c2cccc3c(CC(Nc4nccc5cccc(F)c45)C(=O)O)cccc23)c(C(F)(F)F)c2ccccc21 (stereo not drawn): > 1000 nM
Cn1c(=O)c(-c2cccc3c(C[C@H](NC(=O)c4c(F)cc(N5CCOCC5c5ccc(C(F)(F)F)cc5)cc4F)C(=O)O)cccc23)c(C(F)(F)F)c2ccccc21 (stereo partly drawn): > 1000 nM

Fill in: IC50 of Cn1c(C(F)(F)F)cc(C(F)(F)F)c(-c2cccc3c(C[C@H](NC(=O)[C@]4(C)CC[C@H](N5CCOC[C@@H]5C(F)(F)F)CC4)C(=O)O)cccc23)c1=O is ___
10 to 100 nM
